# Tested Target: RXRα (Homo sapiens, UniProt P19793, W305A)
# Construct: RXRα-LBD
# Sequence (P19793 223-462 W305A): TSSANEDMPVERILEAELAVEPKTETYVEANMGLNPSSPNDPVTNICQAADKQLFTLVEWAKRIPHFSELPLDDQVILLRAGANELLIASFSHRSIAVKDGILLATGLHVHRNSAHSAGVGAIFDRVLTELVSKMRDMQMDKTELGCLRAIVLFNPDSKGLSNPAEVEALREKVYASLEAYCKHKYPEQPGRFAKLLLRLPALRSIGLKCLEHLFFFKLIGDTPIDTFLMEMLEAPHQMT
# Assay Details: SPR (BIAcore T200)
Readout Label: pKd
Please express pKd as -log10 of the molar concentration.

Prompt: Request body: readout pKd, system RXRα (Homo sapiens, UniProt P19793, W305A), query C/C(=N/O)c1sc(-n2nc(-c3ccccc3)cc2-c2ccccc2)nc1C . Return the value.
Completion: 3.00
